- Test system: MKNK1;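 further: kd values determined as follow-up on hits from a single-replicate KINOMEscan panel screen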
REPORTED_PROPERTY: Kd

COMPOUND: Cc1cccc(-c2nc(Nc3ccc4c(cnn4C)c3)c3ccccc3n2)n1 [GW876731]
REPORTED_PROPERTY: Kd
REPORTED_RESULT: > 10 µM

* * *

- Test system: LTK;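 further: KINOMEscan kinase panel screen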
- CONDITION_NOTES: concentration: 1 μM, replicates: in singlicate; n = 1
%Inh for assorted molecules
REPORTED_PROPERTY: %Inh (%)

MOLECULE: Nc1nc(N)c2nc(-c3ccccc3)[nH]c2n1
UNIT_STRING: %
REPORTED_RESULT: 5
//
MOLECULE: CN1C(=O)C(Nc2ccccc2)=C(c2ccccc2)C1=O
UNIT_STRING: %
REPORTED_RESULT: 0
//
MOLECULE: COc1cc2ncn(-c3cc(OCc4ccncc4Br)c(C(N)=O)s3)c2cc1OC
UNIT_STRING: %
REPORTED_RESULT: 7
//
MOLECULE: Cc1nn2c(=O)cc(N3CCOCC3)nc2n1Cc1cccc(Cl)c1Cl
UNIT_STRING: %
REPORTED_RESULT: 0
//
MOLECULE: COc1cc2ncn(-c3cc(OCCCc4ccccc4)c(C(N)=O)s3)c2cc1OC
UNIT_STRING: %
REPORTED_RESULT: 0
//
MOLECULE: Nc1nc(-c2ccccc2F)c(-c2ccnc3ccccc23)s1
UNIT_STRING: %
REPORTED_RESULT: 22
//
MOLECULE: COc1cc(Nc2nccc(N3CCC(NC(=O)C4COc5ccccc5O4)C3)n2)cc(OC)c1OC (stereo not shown)
UNIT_STRING: %
REPORTED_RESULT: 38
//
MOLECULE: COC(=O)c1c(-c2ccccc2)c2cc(Br)ccc2c(=O)n1Cc1ccc(S(C)(=O)=O)cc1
UNIT_STRING: %
REPORTED_RESULT: 9
//
MOLECULE: CN(C)c1cc(-c2ccc3c(N)n[nH]c3c2)nc(N)n1
UNIT_STRING: %
REPORTED_RESULT: 4
//
MOLECULE: CCC(=O)c1c(-c2ccccc2)c2cc(Cl)ccc2c(=O)n1Cc1ccc(C(=O)O)cc1
UNIT_STRING: %
REPORTED_RESULT: 0
//
MOLECULE: Cc1nc(N(C)[C@H]2CN(C(=O)CC#N)CC[C@H]2C)c2cc[nH]c2n1
UNIT_STRING: %
REPORTED_RESULT: 0
//
MOLECULE: Nc1ncnc2c1ncn2-c1ccc(Cl)cc1
UNIT_STRING: %
REPORTED_RESULT: 14
//
MOLECULE: CN1C(=O)C(Nc2cc(Cl)c(O)c(Cl)c2)=C(c2ccc(Cl)cc2)C1=O
UNIT_STRING: %
REPORTED_RESULT: 0
//
MOLECULE: CCc1ccc(-c2ccc3c(c2)-c2nn(C)cc2S(=O)(=O)N3C)cc1
UNIT_STRING: %
REPORTED_RESULT: 0
//
MOLECULE: Nc1n[nH]c2ncc(-c3ccccc3)cc12
UNIT_STRING: %
REPORTED_RESULT: 0
//
MOLECULE: COc1cccc(-n2cnc3c(N)ncnc32)c1
UNIT_STRING: %
REPORTED_RESULT: 0
//
MOLECULE: OCCCNc1nccc(-c2c(-c3cccc(C(F)(F)F)c3)nn3cc(C(F)(F)F)ccc23)n1
UNIT_STRING: %
REPORTED_RESULT: 4
//
MOLECULE: Cc1cccc(-c2nc(Nc3ccc4c(cnn4C)c3)c3ccccc3n2)n1
UNIT_STRING: %
REPORTED_RESULT: 0
//
MOLECULE: O=C(Nc1n[nH]c2nc(-c3ccccc3)c(Cl)cc12)C1CC1
UNIT_STRING: %
REPORTED_RESULT: 0

The measured values listed here are drawn from paper PMC5540273.
